All figures here come from PubChem BioAssay (NCI).

Catalogue of TGI values
System: HOP-18 NSCLC
protocol: NCI tumour cell line growth inhibition, 48 h
result type: TGI

molecule="CC(=O)OC(C)(C)C1CCC(C)(C(O)COc2ccc(CCNC(=O)c3ccccc3)cc2)O1 (configuration not stated)" reported_value="> 100 µM"
molecule="O=C1/C(=C/c2ccc(O)cc2)CCC1CNc1ccc(Cl)cc1 (configuration not stated)" reported_value="13.5 µM"
molecule="C/C=C/C1(NS(=O)(=O)c2ccc(C)cc2)CCC(C(C)(C)C)CC1 (configuration not stated)" reported_value="> 100 µM"
molecule="CCC(=O)O[C@@H]1C2C(OC(C)=O)C34COC(C)([C@@H]3C3C(C[C@]3(C)OC(C)=O)[C@@H](OC(=O)c3ccccc3)C4=O)[C@H](OC(C)=O)[C@@]2(OC(C)=O)C[C@@H]1C (some centres not stated)" reported_value="> 100 µM"
molecule="C[Si](C)(C)/C(Br)=C\\CCN1C(=O)CCC1O (configuration not stated)" reported_value="> 100 µM"
molecule="Cc1cc(Cl)ccc1NC(=O)C1C(=O)N(c2ccc(Cl)cc2C)C(=O)/C1=N\\N (configuration not stated)" reported_value="> 100 µM"
molecule=C[Si](C)(C)C#C[I+]c1ccccc1 reported_value="> 100 µM"
molecule=O=c1c(-c2ccccc2)c[nH]c2cc([N+](=O)[O-])c(/C(Cl)=C/c3ccccc3)cc12 reported_value="23.1 µM"
molecule=Cc1cc2c(=O)cc(-c3ccc(Cl)cc3)oc2c(C(=O)O)c1C reported_value="> 100 µM"
molecule="Cc1ccc(S(=O)(=O)N2CCCCC2CCO)cc1 (configuration not stated)" reported_value="> 100 µM"
molecule=COC(=O)/C(C#N)=C1\N=NNN1CCCc1ccccc1 reported_value="> 100 µM"
molecule="O=C1C(c2ccccc2)=C(c2ccccc2)C(c2ccccc2)/C1=C1\\C(=O)C(c2ccccc2)=C(c2ccccc2)C1c1ccccc1 (configuration not stated)" reported_value="> 100 µM"
